Experimental details: chemical genetic growth profiling, strain panel (AID 1159580);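 also: tested at 20 µM; growth read once vehicle control cultures reached saturation at 30 °C; 1 = growth at the plate median or of vehicle wells; lower values mean less growth of the strain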
Reported conditions: S. cerevisiae deletion strains, growth OD, locus YLR320W, strain mms22, active compounds read low
Screen size: about 5,500 compounds; about 2,000 (36%) were called active. About 18% were inconclusive and are not listed. The list shows a part of the results.
Experimental readout: normalized growth
Please reply with the number alone, leaving off any unit.

Some molecules with known normalized growth results, for comparison:
- Cn1cnc([N+](=O)[O-])c1Sc1ncnc2nc[nH]c12: 1.01
- COC(=O)C[C@H]1C(C)(C)[C@@H](OC(C)=O)[C@@H]2CC3C4CC(=O)O[C@@H](c5ccoc5)[C@]4(C)CCC3[C@@]1(C)C2=O (some centres undefined): 1.02
- C[N+]1(C)CCc2cc3c(cc2[C@H]1C1OC(=O)c2c1ccc1c2OCO1)OCO3 (some centres undefined): 1.03
- C[N+]1(C)C2CC[C@H]1CC(OC(=O)C(O)c1ccccc1)C2 (some centres undefined): 0.978
- CC1(C)C[C@@H]2C(=O)CC[C@H]3O[C@]3(C)CC[C@H]21: 1.04

Req: Query (molecule): O=c1cc(-c2ccc(O)cc2)oc2cc(O[C@@H]3O[C@H](CO)[C@@H](O)[C@H](O)[C@H]3O[C@@H]3OC[C@](O)(CO)[C@H]3O)cc(O)c12 ; field requested: normalized growth
Resp: 1.02

Req: Query (molecule): CC1=C(C(=O)O)N2C(=O)[C@@H](NC(=O)[C@H](N)C3=CCC=CC3)C2SC1 (some centres undefined) ; field requested: normalized growth
Resp: 1.01

Req: Query (molecule): CC(=O)N[C@@H](CC(=O)O)C(=O)O ; field requested: normalized growth
Resp: 0.992

Req: Query (molecule): CC1(C)S[C@@H]2[C@H](NC(=O)COc3ccccc3)C(=O)N2[C@H]1C(=O)O ; field requested: normalized growth
Resp: 0.99
